Target: Rap guanine nucleotide exchange factor 3 (Homo sapiens)
Experiment: Validation qHTS for antagonist of cAMP-regulated guanine nucleotide exchange factor 3 (EPAC1); also: nearly all actives have a fitted effect of over 75% in size
Settings: EPAC1 Rap1B-BODIPY-GDP exchange, fluorescence; series mostly up to 150 µM
In all, about 16,000 compounds went through this assay and about 120 (0.75%) were called active. Another 4% or so got no clear call; they are omitted. Calls follow the shape of the dose curve; as a rule, active = well fitted inhibition curve with a large enough effect; inconclusive = small, poorly fitted or top-dose-only effect; inactive = no such curve, though single readings can be large or run the other way. Shown is part of a subset that was picked to be rich in actives.
Outcome codes: true (active), false (inactive)

[[record]]
compound = "O=c1oc2ccccc2c(O)c1C(CC(O)c1ccc(-c2ccc(Br)cc2)cc1)c1ccccc1 (stereo unspecified)"
group_label = "true"

[[record]]
compound = "O=C1C(I)=CC(=C(c2cc(I)c(O)c(I)c2)c2ccccc2C(=O)O)C=C1I"
group_label = "true"

[[record]]
compound = "O=C1OC(c2ccc(O)c(S(=O)(=O)O)c2)(c2ccc(O)c(S(=O)(=O)O)c2)c2c(Br)c(Br)c(Br)c(Br)c21"
group_label = "true"

[[record]]
compound = "CN(CCC(N)CC(=O)NC1C=CC(n2ccc(N)nc2=O)OC1C(=O)O)C(=N)N (stereo unspecified)"
group_label = "false"

[[record]]
compound = "COc1cc(CC(C)N)cc(OC)c1OC (stereo unspecified)"
group_label = "false"

[[record]]
compound = "N#CC(C#N)=Cc1ccc(O)c(O)c1"
group_label = "false"

[[record]]
compound = "O=[N+]([O-])c1ccc(F)c([N+](=O)[O-])c1"
group_label = "false"

[[record]]
compound = "O=c1oc2ccccc2c(O)c1C(c1ccccc1O)c1c(O)c2ccccc2oc1=O"
group_label = "false"

[[record]]
compound = "CN(C)CCc1c[nH]c2cccc(O)c12"
group_label = "false"

[[record]]
compound = "CCOC(=O)[C@]12Cc3cc(OC)ccc3[C@H]1N(Cc1ccccc1)C(=O)c1cc(F)c(F)cc12"
group_label = "false"

[[record]]
compound = "CC(CC(C#N)(c1ccccc1)c1ccccc1)N(C)C (stereo unspecified)"
group_label = "false"

[[record]]
compound = "CCOC(=O)C1(c2ccccc2)CCCN(C)CC1 (stereo unspecified)"
group_label = "false"

[[record]]
compound = "O=C1CC[C@@]2(O)C3Cc4ccc(O)c5c4C2(CCN3CC2CC2)[C@H]1O5 (stereo partly specified)"
group_label = "false"

[[record]]
compound = "COP(=S)(OC)Oc1ccc(S(N)(=O)=O)cc1"
group_label = "false"

[[record]]
compound = "CC(C)C1C(=O)N2CCC[C@H]2[C@]2(O)O[C@](NC(=O)[C@@H]3C=C4c5cccc6[nH]cc(c56)C[C@H]4N(C)C3)(C(C)C)C(=O)N12 (stereo partly specified)"
group_label = "false"

[[record]]
compound = "CC(=O)Oc1c2c(c(CC=C(C)C)c3c1C(=O)C1=CC4CC5C(C)(C)OC(C/C=C(\\C)C(=O)O)(C4=O)[C@]15O3)OC(C)(CCC=C(C)C)C=C2 (stereo partly specified)"
group_label = "true"

[[record]]
compound = "O[C@@H]1CCCC[C@@H]1N1CCC(c2ccccc2)CC1"
group_label = "false"

[[record]]
compound = "N#CN"
group_label = "false"

[[record]]
compound = "COC(=O)/C(C)=C\\CC12OC(C)(C)C3CC(C=C4C(=O)c5c(OC)c6c(c(CC=C(C)C)c5OC431)OC(C)(CCC=C(C)C)C=C6)C2=O (stereo unspecified)"
group_label = "false"

[[record]]
compound = "Cn1cccc1-c1cccnc1"
group_label = "false"

[[record]]
compound = "COc1cc2c(cc1OC)[C@@H]1C(=O)c3ccc4oc(C(C)C)cc4c3OC1CO2 (stereo partly specified)"
group_label = "false"

[[record]]
compound = "CC(C)CCCC1(C)C=Cc2c(O)c3c(c(CCC(C)C)c2O1)OC12C(CC4CC1C(C)(C)OC2(CCC(C)C(=O)O)C4O)C3=O (stereo unspecified)"
group_label = "true"

[[record]]
compound = "CC(=O)O.CC(=O)O.[Cd]"
group_label = "false"

[[record]]
compound = "CC(C)(C)c1cc(O)ccc1O"
group_label = "false"

[[record]]
compound = "O=S(=O)(O)C(F)(F)C(F)(F)C(F)(F)C(F)(F)F"
group_label = "false"

[[record]]
compound = "N#C/C(=C/c1ccc(O)c(O)c1)C(N)=S"
group_label = "false"

[[record]]
compound = "Nc1ccccc1C(=O)O"
group_label = "false"

[[record]]
compound = "CC(C)=CCCC1(C)C=Cc2c(O)c3c(c(CC=C(C)C)c2O1)OC12C(=CC4CC1C(C)(C)OC2(C/C=C(/C)C(=O)O)C4=O)C3=O (stereo unspecified)"
group_label = "true"

[[record]]
compound = "N#C/C(=C\\c1ccc(O)c(O)c1)C(N)=S"
group_label = "true"

[[record]]
compound = "O=c1oc2ccccc2c(O)c1Cc1c(O)c2ccccc2oc1=O"
group_label = "false"

[[record]]
compound = "CCC(=O)O[C@H]1[C@@H](N2CCCCC2)C[C@H]2[C@@H]3CC[C@H]4C[C@H](OC(C)=O)[C@@H](N5CCCCC5)C[C@]4(C)[C@H]3CC[C@@]21C"
group_label = "false"

